- Test system: CAKI-1 renal
- Experiment Notes: NCI tumour cell line growth inhibition, 48 h
Short version: TGI at least 20 µM is met, less is not met.

Challenge: Determine whether this compound has TGI no lower than 20 µM: N#Cc1c(N)[nH]c(=S)c(C#N)c1-c1cccc(Cl)c1
Response given: met

Challenge: Determine whether this compound has TGI no lower than 20 µM: O=c1oc2ccccc2c(O)c1C(c1cc(OCc2ccccc2)cc(OCc2ccccc2)c1)c1c(O)c2ccccc2oc1=O
Response given: met

Challenge: Determine whether this compound has TGI no lower than 20 µM: CSC1=Nc2ccccc2N(C)c2c1c(-c1ccccc1)nn2C
Response given: met

Challenge: Determine whether this compound has TGI no lower than 20 µM: Cn1cc(NC(=O)c2cc(NC(=O)CCCCCCCCCCC(=O)Nc3cc(C(=O)Nc4cc(C(=O)NCCC(=N)N)n(C)c4)n(C)c3)cn2C)cc1C(=O)NCCC(=N)N
Response given: met

Challenge: Determine whether this compound has TGI no lower than 20 µM: O=C1NC(c2ccc(O)cc2)C2CCC1C2 (configuration not stated)
Response given: met

Challenge: Determine whether this compound has TGI no lower than 20 µM: O=C1CC2(C[C@@H]3CCCCCCCCC[C@@H](C3)C2)N1 (some centres not stated)
Response given: met

Challenge: Determine whether this compound has TGI no lower than 20 µM: COc1ccc(/C(=C/n2ccnc2)C(=O)c2ccc(OC)c(OC)c2)cc1
Response given: met

Challenge: Determine whether this compound has TGI no lower than 20 µM: CSc1nc(SC)c2c(CN=[N+]=[N-])c(Br)n(Cc3ccccc3)c2n1
Response given: met

Challenge: Determine whether this compound has TGI no lower than 20 µM: COc1ccc(-c2nn(-c3cccc(Cl)c3)cc2C2CC(c3ccccc3)=NN2C(C)=O)cc1 (configuration not stated)
Response given: met

Challenge: Determine whether this compound has TGI no lower than 20 µM: Nc1nc(Cl)cc(NCC2(CO)CC(CCc3ccccc3)C2)n1 (configuration not stated)
Response given: met

Challenge: Determine whether this compound has TGI no lower than 20 µM: C=CC(=O)Nc1cccc(-c2nc(SC)nc(Nc3ccccc3OC)c2C#N)c1
Response given: not met

Challenge: Determine whether this compound has TGI no lower than 20 µM: Cc1cccc(N2C(=O)C3ON(C(C(N)=O)c4ccccc4)C(c4c5ccccc5c(Cl)c5ccccc45)C3C2=O)c1C (configuration not stated)
Response given: met

Challenge: Determine whether this compound has TGI no lower than 20 µM: CC(CO)(CO)N=Cc1cc(I)cc(I)c1O
Response given: met

Challenge: Determine whether this compound has TGI no lower than 20 µM: CC(C)(C)c1cc(O)c(O)c(C(C)(C)C)c1
Response given: not met

Challenge: Determine whether this compound has TGI no lower than 20 µM: COc1ncc(C=C(C#N)C#N)c(OC)n1
Response given: met

Challenge: Determine whether this compound has TGI no lower than 20 µM: COC(=O)C(=O)CC(=O)CCn1ncc(Cl)c(Cl)c1=O
Response given: not met

Challenge: Determine whether this compound has TGI no lower than 20 µM: O=C(/C=C/c1ccc(Cl)cc1)c1ccc(Cl)cc1Cl
Response given: not met

Challenge: Determine whether this compound has TGI no lower than 20 µM: Oc1ccccc1C(c1cc2c(cc1O)OCO2)N1CCOCC1 (configuration not stated)
Response given: met

Challenge: Determine whether this compound has TGI no lower than 20 µM: CCOC(=O)c1sc2nc(SC)nc3c2c1N=CN3c1ccc(Br)cc1
Response given: met

Challenge: Determine whether this compound has TGI no lower than 20 µM: O=C(/C=C/c1ccccc1)/C=C/c1ccccc1O
Response given: met

Challenge: Determine whether this compound has TGI no lower than 20 µM: C#Cc1cnc(=O)n(C2CC(O)C(CO)O2)c1 (configuration not stated)
Response given: met

Challenge: Determine whether this compound has TGI no lower than 20 µM: Cc1cc(=O)cc2sc3c(C)cccc3nc1-2
Response given: met

----------
- Test system: SK-MEL-2 melanoma
- Experiment Notes: NCI tumour cell line growth inhibition, 48 h
Short version: TGI at least 50 µM is label 1, less is label 0.

Challenge: Determine whether this compound has TGI no lower than 50 µM: CCOC(=O)CCC(NC(=O)c1ccc(OCc2nc3cc(C(F)(F)F)ccc3nc2-c2ccccc2)cc1)C(=O)OCC (centres undefined)
Response given: label 1

Challenge: Determine whether this compound has TGI no lower than 50 µM: COc1ccc(-c2c(C#N)c(N)n(C3OC(CO)C(O)C(O)C3O)c(=S)c2C#N)cc1 (centres undefined)
Response given: label 1

Challenge: Determine whether this compound has TGI no lower than 50 µM: COc1ccc(-c2cc(-c3cc(Cl)ccc3Cl)nc3[nH]c(-c4cc(F)c(Cl)cc4Cl)cc(=O)c23)cc1
Response given: label 1

Challenge: Determine whether this compound has TGI no lower than 50 µM: CC(C)C(Sc1nc(-c2ccccc2)c(-c2ccccc2)[nH]1)C(=O)NNC(=S)Nc1ccccc1 (centres undefined)
Response given: label 0

Challenge: Determine whether this compound has TGI no lower than 50 µM: c1ccc([P+](CCNCCNCC[P+](c2ccccc2)(c2ccccc2)c2ccccc2)(c2ccccc2)c2ccccc2)cc1
Response given: label 1

Challenge: Determine whether this compound has TGI no lower than 50 µM: CC(CO)(CO)N=Cc1cc(I)cc(I)c1O
Response given: label 0

Challenge: Determine whether this compound has TGI no lower than 50 µM: CC(=O)OCC1OC(N2C(=O)/C(=C\c3ccc(Cl)cc3)C(N)=Nc3ccccc32)C(OC(C)=O)C(OC(C)=O)C1OC(C)=O (centres undefined)
Response given: label 1

Challenge: Determine whether this compound has TGI no lower than 50 µM: CCOC(=O)c1c(NC(=O)c2ccccc2)sc2c1CCCC2
Response given: label 1

Challenge: Determine whether this compound has TGI no lower than 50 µM: COc1ccc(/C=C/C=C(/C#N)C(N)=S)cc1
Response given: label 1

----------
For each of the compounds below, state its GI50.
- Test system: HL-60(TB) leukemia
- Experiment Notes: NCI tumour cell line growth inhibition, 48 h

GI50 in this record for CC(=O)c1ccc(Nc2cc(-c3ccccc3)nc3c(O)cccc23)cc1 : 3130 nM

GI50 in this record for CCn1c(-c2nonc2N)nc2c(C#CCN)ncc(OCCCN)c21 : > 25000 nM

GI50 in this record for C=C1C(=O)O[C@H]2[C@H]1CC/C(CNC(=O)c1c[nH]c3ccc(F)cc13)=C\CC[C@@]1(C)O[C@@H]21 : 2180 nM

GI50 in this record for CN(C)CC(=O)N1CCC(c2ccc(NC(=O)c3ncc(C#N)[nH]3)c(C3=CCCCC3)c2)CC1 : 2990 nM

GI50 in this record for COc1ccc(C(=O)Nc2ncc(Cc3ccc(Cl)cc3)s2)cc1 : 34.7 nM

GI50 in this record for CC(C)(C)c1cc(O)c(O)c(C(C)(C)C)c1 : 2690 nM

----------
For each of the molecules below, state its TGI.
- Test system: MALME-3M melanoma
- Experiment Notes: NCI tumour cell line growth inhibition, 48 h

Case CN=C(N)N/N=C(\c1ccccc1)c1ccc(Br)cc1 , MALME-3M melanoma, TGI recorded as 4.24 µM

Case O=[N+]([O-])[C@@H]1C2C=CC(C2)[C@H]1Cl (some centres not stated) , MALME-3M melanoma, TGI recorded as > 100 µM

Case CCCCCCCCCCCCCCCC(=O)NCC(COP(=O)([O-])OCC[N+](C)(C)C)OCC (configuration not stated) , MALME-3M melanoma, TGI recorded as 30.8 µM

Case CCC(=O)C(c1ccccc1)c1ccccn1 (configuration not stated) , MALME-3M melanoma, TGI recorded as > 100 µM

Case CCOC(=O)C1=C(C)Nc2ccccc2S1 , MALME-3M melanoma, TGI recorded as > 100 µM

Case O=C1CC2(C[C@@H]3CCCCCCCCC[C@@H](C3)C2)N1 (some centres not stated) , MALME-3M melanoma, TGI recorded as 24.5 µM

Case CC[C@@H]1CC[C@@H]2[C@H](CC[C@]3(C)[C@@H](O)CC[C@@H]23)[C@H]1C(=O)O , MALME-3M melanoma, TGI recorded as > 100 µM

Case CCOC(=O)c1cc2c([N+](=O)[O-])c(NC(C)=O)ccc2s1 , MALME-3M melanoma, TGI recorded as > 100 µM

Case N#Cc1c(N)[nH]c(=S)c(C#N)c1-c1cccc(Cl)c1 , MALME-3M melanoma, TGI recorded as > 100 µM

Case CCN(CC)CCOC(c1cc(OC)ccc1OC)c1ccc2n1-c1ccccc1OC2 (configuration not stated) , MALME-3M melanoma, TGI recorded as 35.8 µM

Case O=C(O)c1ccc(NC(c2ccccc2)c2ccc3cccnc3c2O)cc1 (configuration not stated) , MALME-3M melanoma, TGI recorded as > 100 µM

Case Cc1ccc(-c2c(N)nc(NC#N)nc2CCC(=O)Nc2ccccc2[N+](=O)[O-])cc1 , MALME-3M melanoma, TGI recorded as > 100 µM

Case CN1CCN(Cc2ccc(C(=O)Nc3cncc(C#Cc4cnc(N)c5ccccc45)c3)cc2C(F)(F)F)CC1 , MALME-3M melanoma, TGI recorded as 3.25 µM

Case C=CC1=CSNN1 , MALME-3M melanoma, TGI recorded as > 100 µM

Case O=C1CC2C=CC(O)C(C1)C2 (configuration not stated) , MALME-3M melanoma, TGI recorded as > 100 µM

Case Cc1cc2nc3c4cc(Cl)ccc4n(CCN(C)C)c3nc2cc1C , MALME-3M melanoma, TGI recorded as 3.33 µM

Case CC(C)CC(N)C(=O)OCN1C(=O)C2C3C=CC(C2C1=O)C1C2C(=O)N(COC(=O)C(N)CC(C)C)C(=O)C2C31 (configuration not stated) , MALME-3M melanoma, TGI recorded as > 100 µM

Case COC(=O)C1=C(C(=O)OC)C2OC1C1C2C2(C)C(C)=C(C)C1(C)S2=O (configuration not stated) , MALME-3M melanoma, TGI recorded as 20.9 µM

Case CC1(C)N=C(N)N=C(N)N1c1ccc(CCCCc2ccc(S(=O)(=O)F)cc2)cc1 , MALME-3M melanoma, TGI recorded as 32.4 µM

Case C#Cc1cnc(=O)n(C2CC(O)C(CO)O2)c1 (configuration not stated) , MALME-3M melanoma, TGI recorded as > 100 µM

Case COC(=O)C(c1[nH]nc2ccccc12)C(C(=O)OC)c1[nH]nc2ccccc12 (configuration not stated) , MALME-3M melanoma, TGI recorded as > 100 µM

Case O=C(Nc1nc2ccccc2s1)OCC(F)(F)F , MALME-3M melanoma, TGI recorded as > 100 µM
